- assay.system: Receptor-type tyrosine-protein kinase FLT3 (Homo sapiens, UniProt P36888, D835Y)
- experimental.details: Inhibition of human FLT3 D835Y mutant
pIC50: −log10 of the molar value.

record.smiles	assay.system	pIC50
Cc1cc(Nc2nc(N[C@@H](C)c3ccc(F)cn3)c(C#N)cc2F)n[nH]1	Receptor-type tyrosine-protein kinase FLT3 (Homo sapiens, UniProt P36888, D835Y)	7.09

====

- experimental.details: Oral bioavailability in dog
- Assay type: ADME, organism-based, Canis lupus familiaris
- assay.context: in vivo

record.smiles	bioavailability [%]
Cc1cc(Nc2nc(N[C@@H](C)c3ccc(F)cn3)c(C#N)cc2F)n[nH]1	100
